The reader will find CC50 measurements below, all made with HEL 299 cells.
Measurement name: CC50

[[record]]
molecule = "COc1cc(C2Nn3c(nnc3-n3nc(C)cc3C)SC2C(=O)c2ccccc2)cc(OC)c1OC (racemic)"
value = "> 100 µM"

[[record]]
molecule = "Cc1cc(C)n(-c2nnc3n2NC(c2ccc(Cl)cc2)C(C(=O)c2ccc(Br)cc2)S3)n1 (racemic)"
value = "> 100 µM"

[[record]]
molecule = "Cc1cc(C)n(-c2nnc3n2NC(c2cc(F)c(F)c(F)c2)C(C(=O)c2ccccc2)S3)n1 (racemic)"
value = "> 100 µM"

[[record]]
molecule = "Cc1ccc(C(=O)C2Sc3nnc(-n4nc(C)cc4C)n3NC2c2cc(F)c(F)c(F)c2)cc1 (racemic)"
value = "23.8 µM"


====

Measured pEC50, listed per entry for reference.
System: hCoV-229E
Type: cell-based, human corona virus 229E
Cond: […]; (*) mean of three independent experiments ± SEM
pEC50: −log10 of the molar value.
Measurement name: pEC50

[[record]]
compound = "Cc1cc(C)n(-c2nnc3n2NC(c2ccccc2Br)C(C(=O)c2ccc(F)cc2)S3)n1 (racemic)"
target = "hCoV-229E"
value = "< 4.00"

[[record]]
compound = "Cc1cc(C)n(-c2nnc3n2NC(c2cccs2)C(C(=O)c2ccc([N+](=O)[O-])cc2)S3)n1 (racemic)"
target = "hCoV-229E"
value = "< 4.00"

[[record]]
compound = "COc1ccc(C(=O)C2Sc3nnc(-n4nc(C)cc4C)n3NC2c2ccccc2Cl)cc1 (racemic)"
target = "hCoV-229E"
value = "< 4.00"

